- test_system: IgG150-18 (scFv150-18 cloned into human IgG format)
- Sequence (chain, as listed by the source, chain 1 of 2): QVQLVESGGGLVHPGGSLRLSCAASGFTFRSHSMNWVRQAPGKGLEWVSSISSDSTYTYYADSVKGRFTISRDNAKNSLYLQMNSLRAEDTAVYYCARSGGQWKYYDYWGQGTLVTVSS
- Sequence (chain, as listed by the source, chain 2 of 2): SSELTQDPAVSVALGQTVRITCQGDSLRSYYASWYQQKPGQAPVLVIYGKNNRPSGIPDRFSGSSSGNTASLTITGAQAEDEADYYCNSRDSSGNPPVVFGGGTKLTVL
- test_name: FACS binding assay
- condition_notes: chain shown with the change; 100nM antibody; parent: est. 100; read off a plot
Please go through the items and note down their percent of parent.

* WT GPRC5D expressed on HEK293T cells, Q9NZD1 E83A (protein) MYKDCIESTGDYFLLCDAEGPWGIILESLAILGIVVTILLLLAFLFLMRKIQDCSQWNVLPTQLLFLLSVLGLFGLAFAFIIALNQQTAPVRYFLFGVLFALCFSCLLAHASNLVKLVRGCVSFSWTTILCIAIGCSLLQIIIATEYVTLIMTRGMMFVNMTPCQLNVDFVVLLVYVLFLMALTFFVSKATFCGPCENWKQHGRLIFITVLFSIIIWVVWISMLLRGNPQFQRQPQWDDPVVCIALVTNAWVFLLLYIVPELCILYRSCRQECPLQGNACPVTAYQHSFQVENQELSRARDSDGAEEDVALTSYGTPIQPQTVDPTQECFIPQAKLSPQQDAGGV | 95 % of WT
* WT GPRC5D expressed on HEK293T cells, Q9NZD1 Q236A (protein) MYKDCIESTGDYFLLCDAEGPWGIILESLAILGIVVTILLLLAFLFLMRKIQDCSQWNVLPTQLLFLLSVLGLFGLAFAFIIELNQQTAPVRYFLFGVLFALCFSCLLAHASNLVKLVRGCVSFSWTTILCIAIGCSLLQIIIATEYVTLIMTRGMMFVNMTPCQLNVDFVVLLVYVLFLMALTFFVSKATFCGPCENWKQHGRLIFITVLFSIIIWVVWISMLLRGNPQFQRQPAWDDPVVCIALVTNAWVFLLLYIVPELCILYRSCRQECPLQGNACPVTAYQHSFQVENQELSRARDSDGAEEDVALTSYGTPIQPQTVDPTQECFIPQAKLSPQQDAGGV | 75 % of WT
* WT GPRC5D expressed on HEK293T cells, Q9NZD1 P235A (protein) MYKDCIESTGDYFLLCDAEGPWGIILESLAILGIVVTILLLLAFLFLMRKIQDCSQWNVLPTQLLFLLSVLGLFGLAFAFIIELNQQTAPVRYFLFGVLFALCFSCLLAHASNLVKLVRGCVSFSWTTILCIAIGCSLLQIIIATEYVTLIMTRGMMFVNMTPCQLNVDFVVLLVYVLFLMALTFFVSKATFCGPCENWKQHGRLIFITVLFSIIIWVVWISMLLRGNPQFQRQAQWDDPVVCIALVTNAWVFLLLYIVPELCILYRSCRQECPLQGNACPVTAYQHSFQVENQELSRARDSDGAEEDVALTSYGTPIQPQTVDPTQECFIPQAKLSPQQDAGGV | 95 % of WT

Hi team, please reply with percent of parent for each item in this list.
1. WT GPRC5D expressed on HEK293T cells, Q9NZD1 S8A (protein) MYKDCIEATGDYFLLCDAEGPWGIILESLAILGIVVTILLLLAFLFLMRKIQDCSQWNVLPTQLLFLLSVLGLFGLAFAFIIELNQQTAPVRYFLFGVLFALCFSCLLAHASNLVKLVRGCVSFSWTTILCIAIGCSLLQIIIATEYVTLIMTRGMMFVNMTPCQLNVDFVVLLVYVLFLMALTFFVSKATFCGPCENWKQHGRLIFITVLFSIIIWVVWISMLLRGNPQFQRQPQWDDPVVCIALVTNAWVFLLLYIVPELCILYRSCRQECPLQGNACPVTAYQHSFQVENQELSRARDSDGAEEDVALTSYGTPIQPQTVDPTQECFIPQAKLSPQQDAGGV
2. WT GPRC5D expressed on HEK293T cells, Q9NZD1 T9A (protein) MYKDCIESAGDYFLLCDAEGPWGIILESLAILGIVVTILLLLAFLFLMRKIQDCSQWNVLPTQLLFLLSVLGLFGLAFAFIIELNQQTAPVRYFLFGVLFALCFSCLLAHASNLVKLVRGCVSFSWTTILCIAIGCSLLQIIIATEYVTLIMTRGMMFVNMTPCQLNVDFVVLLVYVLFLMALTFFVSKATFCGPCENWKQHGRLIFITVLFSIIIWVVWISMLLRGNPQFQRQPQWDDPVVCIALVTNAWVFLLLYIVPELCILYRSCRQECPLQGNACPVTAYQHSFQVENQELSRARDSDGAEEDVALTSYGTPIQPQTVDPTQECFIPQAKLSPQQDAGGV
3. WT GPRC5D expressed on HEK293T cells, Q9NZD1 L15A (protein) MYKDCIESTGDYFLACDAEGPWGIILESLAILGIVVTILLLLAFLFLMRKIQDCSQWNVLPTQLLFLLSVLGLFGLAFAFIIELNQQTAPVRYFLFGVLFALCFSCLLAHASNLVKLVRGCVSFSWTTILCIAIGCSLLQIIIATEYVTLIMTRGMMFVNMTPCQLNVDFVVLLVYVLFLMALTFFVSKATFCGPCENWKQHGRLIFITVLFSIIIWVVWISMLLRGNPQFQRQPQWDDPVVCIALVTNAWVFLLLYIVPELCILYRSCRQECPLQGNACPVTAYQHSFQVENQELSRARDSDGAEEDVALTSYGTPIQPQTVDPTQECFIPQAKLSPQQDAGGV
4. WT GPRC5D expressed on HEK293T cells, Q9NZD1 D11A (protein) MYKDCIESTGAYFLLCDAEGPWGIILESLAILGIVVTILLLLAFLFLMRKIQDCSQWNVLPTQLLFLLSVLGLFGLAFAFIIELNQQTAPVRYFLFGVLFALCFSCLLAHASNLVKLVRGCVSFSWTTILCIAIGCSLLQIIIATEYVTLIMTRGMMFVNMTPCQLNVDFVVLLVYVLFLMALTFFVSKATFCGPCENWKQHGRLIFITVLFSIIIWVVWISMLLRGNPQFQRQPQWDDPVVCIALVTNAWVFLLLYIVPELCILYRSCRQECPLQGNACPVTAYQHSFQVENQELSRARDSDGAEEDVALTSYGTPIQPQTVDPTQECFIPQAKLSPQQDAGGV

A.
1: 92 % of WT; 2: 100 % of WT; 3: 63 % of WT; 4: 42 % of WT
